# TARGET_OF_ASSAY: T1, recombinant biotinylated human PAR2 extracellular domain (residues 1-75), N-terminal AviTag, C-terminal Flag … (human, UniProt P55085 26-75, biotin on the AviTag (enzymatic biotinylation))
# T1 construct: also called Bio-human-PAR2 ECD; human PAR2 ECD; not shown: N-terminal AviTag (Avidity LLC); C-terminal Flag and poly Histidine tags
# ASSAY_TEXT: HTRF competition with Par0067 IgG, pH 7.4, scFv
# Experimental: 5 μl/well of the appropriate pH 4.44 nM Par0067 IgG solution was added to all wells of the relevant assay plate (pH 7.4 and pH 6.0). […] For multipoint dose response curves % Specific Binding values were plotted versus test purified antibody concentration (scFv or IgG). IC₅₀ values were determined via a sigmoidal dose response inhibition variable slope curve fit (4 parameter logistic equation) using Graphpad Prism Software.
OBSERVABLE: IC50
Quick note: number first, unit second.

# BINDER, IC50
rows = [
    ("PaB670088 scFv (scFv, V domains shown, purified scFv; also called ZZ1ODR-B11) VH: EVQLLESGGGLVQPGGSLRLSCAASGFTFSSYAMNWVRQAPGKGLEWVSTISYSGHLIHYADHHHGRFTISRDNSKNTLYLQMNSLRAEDTAVYYCARINNDPMDVWGQGTLVTVSS VL: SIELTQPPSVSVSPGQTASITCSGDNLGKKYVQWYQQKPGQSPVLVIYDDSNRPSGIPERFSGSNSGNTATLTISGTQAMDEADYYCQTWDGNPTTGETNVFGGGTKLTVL", "29.8 nM"),
    ("PaB670048 scFv (scFv, V domains shown, purified scFv; also called ZZ1KX4-E11) VH: EVQLLESGGGLVQPGGSLRLSCAASGFTFSSYAMNWVRQAPGKGLEWVSTISYSGSLISYADSVKGRFTISRDNSKNTLYLQMNSLRAEDTAVYYCARIHHDPMDHWGQGTLVTVSS VL: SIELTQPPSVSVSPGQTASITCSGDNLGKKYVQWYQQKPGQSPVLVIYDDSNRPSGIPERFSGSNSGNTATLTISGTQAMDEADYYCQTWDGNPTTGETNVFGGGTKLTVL", "14.5 nM"),
    ("PaB670020 scFv (scFv, V domains shown, purified scFv; also called ZZ1IGD-D05) VH: EVQLLESGGGLVQPGGSLRLSCAASGFTFSSYAMNWVRQAPGKGLEWVSTISYSGSLISYADSVKGRFTISRDNSKNTLYLQMNSLRAEDTAVYYCARINHDPMDVWGQGTLVTVSS VL: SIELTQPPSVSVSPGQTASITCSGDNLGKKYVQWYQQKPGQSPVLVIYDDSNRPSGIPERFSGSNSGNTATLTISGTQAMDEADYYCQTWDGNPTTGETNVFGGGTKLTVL", "5.6 nM"),
    ("PaB670064 scFv (scFv, V domains shown, purified scFv; also called ZZ1KX6-B09) VH: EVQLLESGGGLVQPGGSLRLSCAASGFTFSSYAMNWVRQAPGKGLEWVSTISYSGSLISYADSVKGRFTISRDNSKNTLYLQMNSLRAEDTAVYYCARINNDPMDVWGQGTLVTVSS VL: SIELTQPPSVSVSPGQTASITCSGDNLGKKYVQWYQQKPGQSPVLVIYDDSNRPSGIPERFSGSNSGNTATLTISGTQAMDEADYYCHTWHHNPHTGETNHFGGGTKLTVL", "67.1 nM"),
]

Turning now to a further binder:
Determine from records and report IC50 for PaB670093 scFv (scFv, V domains shown, purified scFv; also called ZZ1ODR-H04) VH: EVQLLESGGGLVQPGGSLRLSCAASGFTFSSYAMNWVRQAPGKGLEWVSTISYHHHLISHADSVKGRFTISRDNSKNTLYLQMNSLRAEDTAVYYCARINNDPMDVWGQGTLVTVSS VL: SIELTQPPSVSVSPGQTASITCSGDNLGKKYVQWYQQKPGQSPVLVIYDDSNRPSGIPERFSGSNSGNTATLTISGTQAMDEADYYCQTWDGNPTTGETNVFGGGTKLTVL
18.6 nM
